EXPERIMENTAL PARAMETERS: buffer; pH 7.4; 6.0 h; 150.0 µM
Listed molecules paired with reported solubility kinetic
REPORTED METRIC: solubility kinetic

{"columns": ["SMILES REPR", "RESULT"],
 "data": [
  ["C#CCNC(=O)c1nc(-c2ccc(Cl)nc2)c2ccccn12", "2.64 µg/mL"],
  ["Nc1nccc2c1ncn2[C@@H]1C=C(CO)[C@@H](O)[C@H]1O", "> 39 µg/mL"],
  ["COc1ccc(-c2ccc3ncc(Nc4cccnc4OC)n3n2)cn1", "5.33 µg/mL"],
  ["Cn1nc(-c2ccccc2F)c2cc(C(=O)Nc3cc(F)ccc3F)sc21", "< 1 µg/mL"],
  ["c1ccc(-c2cn[nH]c2)cc1", "> 14 µg/mL"],
  ["Cc1ccc(S(=O)(=O)Nc2cncc(C(=O)Nc3nc(-c4ccccc4)cs3)c2)cc1", "< 1 µg/mL"]
]}

---

EXPERIMENTAL PARAMETERS: buffer; pH 7.4; 6.0 h; 150.0 µM
Listed compounds paired with reported solubility kinetic

{"columns": ["COMPOUND", "solubility kinetic"],
 "data": [
  ["COc1ccc(C(=O)c2sc(Nc3cccc(Cl)c3)nc2N)cc1", "< 1 µg/mL"],
  ["Cc1nn2c(c1-c1ccccc1-c1ccccc1)N(CC1CC1)CCC2", "1.56 µg/mL"],
  ["Cc1noc(C)c1[S+](=O)([O-])N1CCC2(CC1)CC(c1cccc(C(F)(F)F)c1)=NO2", "< 1 µg/mL"],
  ["CCC(C)N(C)C(=O)c1cc2ccccc2c(-c2ccccc2Cl)n1 (stereo unspecified)", "38.6 µg/mL"],
  ["COc1ccc(-c2ccc3ncc(Nc4ccc(C(N)=O)cc4)n3n2)cc1OC", "27.4 µg/mL"],
  ["Cc1sc(NC(=O)Cc2ccc3c(c2)OCO3)nc1-c1ccc2c(c1)CCN2C(=O)c1ccccc1F", "< 1 µg/mL"],
  ["Cc1cc(F)ccc1S(=O)(=O)Nc1cnccc1C(=O)Nc1nc(-c2ccccc2)cs1", "34.6 µg/mL"],
  ["CNc1oc(-c2ccc(-c3ccccc3)cc2)nc1C#N", "< 1 µg/mL"],
  ["COc1ccccc1N1CCN(CCN(C(=O)c2ccc(F)cc2)c2ccccn2)CC1", "> 64 µg/mL"],
  ["CCOc1cc(=O)n2c(c1C(=O)Nc1cc(OC)c(Cl)cc1OC)CCCC2", "> 60 µg/mL"],
  ["COc1cccc(CNc2ccc(S(=O)(=O)Nc3nccs3)cc2)c1O", "> 58 µg/mL"],
  ["CCCCOC(=O)c1ccnc2cc(C(OCCN3CCCCC3)c3ccccc3Cl)sc12 (stereo unspecified)", "< 1 µg/mL"],
  ["CCOc1cc(F)c(CCNC(=O)c2cc3sccc3n2Cc2ccccc2)cc1OCC", "< 1 µg/mL"],
  ["NC(=O)NCC(=O)N[C@H]1CC[C@H](Nc2nccc(-c3ccncc3)n2)C1", "> 35 µg/mL"],
  ["O=C(Nc1nc(-c2ccccc2)cs1)c1ccccc1-n1cnnn1", "< 1 µg/mL"],
  ["CC[S+](=O)([O-])Nc1ccccc1C(=O)Nc1nc(-c2ccccc2)cs1", "40.5 µg/mL"],
  ["Cc1nc2ccc(C(=O)N3CCC4(CC3)CC(=O)c3c(cnn3C(C)C)C4)cc2[nH]1", "> 60 µg/mL"],
  ["CN(C(=O)CSc1nc2ccc(NC(=O)c3ccc(F)cc3)cc2s1)c1ccccc1", "< 1 µg/mL"],
  ["CCc1oc2ccccc2c1C(=O)c1cc(Br)c(O)c(Br)c1", "> 62 µg/mL"],
  ["O=C(Nc1ccc2oc(-c3cccnc3)nc2c1)c1ccc(-c2ccccc2)o1", "< 1 µg/mL"],
  ["Cc1nn(CC(=O)NCCCN2CCC(N3CCCCC3)CC2)c(=O)c2cc(-c3ccccc3)nn12", "> 73 µg/mL"]
]}

---

EXPERIMENTAL PARAMETERS: buffer; pH 7.4; 6.0 h; 150.0 µM
Listed compounds paired with reported solubility kinetic

{"columns": ["COMPOUND", "solubility kinetic"],
 "data": [
  ["Cc1ccc(S(=O)(=O)Nc2ccc(F)cc2C(=O)Nc2nc(-c3ccccc3)cs2)cc1", "< 1 µg/mL"],
  ["NC(=O)C1CCN(c2nc(-c3ccc(OC(F)(F)F)cc3)cs2)CC1", "< 1 µg/mL"],
  ["O=S(=O)(Nc1nc2ccccc2s1)c1ccc(NCc2cccc(Cl)c2O)cc1", "1.1 µg/mL"],
  ["O=C(Cc1n[nH]c(=O)c2ccccc12)NC1CCCc2c1[nH]c1c(Cl)cccc21 (stereo not given)", "< 1 µg/mL"],
  ["Cc1ccc(S(=O)(=O)Nc2cnccc2C(=O)Nc2ccccc2)cc1", "> 54 µg/mL"],
  ["COc1ccc(C2c3c(oc4ccc(Cl)cc4c3=O)C(=O)N2CCCN(C)C)cc1OC (stereo not given)", "> 67 µg/mL"],
  ["CC(C)c1ccccc1-c1ncc(F)c(NCc2ccc(-c3ccn[nH]3)cc2)n1", "< 1 µg/mL"],
  ["CCOc1ccc(CCNC(=O)c2cc3sccc3n2Cc2cccc(C)c2)cc1OCC", "< 1 µg/mL"],
  ["NC(=O)c1sc2nc3c(c(-c4cccs4)c2c1N)CCCC3", "0.293 µg/mL"],
  ["Cc1cc(-c2nnc3n2CCCCC3)c(C)n1-c1ccc(C(F)(F)F)cc1", "43.3 µg/mL"]
]}

---

EXPERIMENTAL PARAMETERS: buffer; pH 7.4; 6.0 h; 150.0 µM
REPORTED METRIC: log10(solubility kinetic) (log10 of the value in µg/mL)

{"columns": ["SMILES REPR", "READOUT NUMBER"],
 "data": [
  ["COc1ccccc1CNC(=O)CCCn1nc(C)c2c(C)n(-c3ccc(C)cc3)nc2c1=O", 0.36],
  ["CN(C)c1cccc(-c2cnc(N3CCC(c4ncc[nH]4)CC3)s2)c1", 1.51],
  ["Cc1cc(NC(=S)N2CCN(c3cccc(C(F)(F)F)c3)CC2)nc2ccccc12", 0.64],
  ["O=c1c(O)c(-c2ccc(O)cc2)oc2cc(O)cc(O)c12", 0.13],
  ["CCN1CCN(c2ncc3c(n2)CCN(Cc2cc(Br)cs2)C3)CC1", 1.57]
]}

---

EXPERIMENTAL PARAMETERS: buffer; pH 7.4; 6.0 h; 150.0 µM

{"columns": ["SMILES REPR", "UNIT TAG", "BOUND SIGN", "solubility kinetic"],
 "data": [
  ["CCN(CC)c1ccc(Nc2nc(Cl)ncc2Br)cc1", "mg/mL", "=", 0.00494],
  ["O=C(CSc1ccccc1)Nc1nnc(COc2ccc(Cl)cc2)s1", "mg/mL", "<", 0.001],
  ["CN1Cc2c(cc(N3CCOCC3)nc2-c2ccccc2OC(F)(F)F)C1=O", "mg/mL", "=", 0.0121],
  ["O=C(Nc1ccc(C(=O)Nc2nccs2)cc1)c1ccc2ccccc2c1", "mg/mL", "<", 0.001],
  ["COc1cccc(-c2cn3c(n2)sc2cc(C(=O)NCCc4ccc(OC)c(OC)c4)ccc23)c1", "mg/mL", "<", 0.001],
  ["c1ccc(Nc2cc(-c3ccoc3)ncn2)cc1", "mg/mL", "=", 0.0162],
  ["CC1(COc2ccc3c(c2)ncn3-c2ccc3cccc(N4CCC(N)CC4)c3n2)COC1", "mg/mL", "=", 0.0368],
  ["Cc1noc(-c2cn(C3CCN(C(=O)c4ccc(OC(F)(F)F)cc4)CC3)nn2)n1", "mg/mL", "=", 0.0379],
  ["CC[C@H]1NC(=O)[C@@H](NC(=O)c2ncccc2O)[C@@H](C)OC(=O)[C@H](c2ccccc2)NC(=O)[C@@H]2CC(=O)CCN2C(=O)[C@H](Cc2ccccc2)N(C)C(=O)[C@@H]2CCCN2C1=O", "mg/mL", ">", 0.1]
]}

---

EXPERIMENTAL PARAMETERS: buffer; pH 7.4; 6.0 h; 150.0 µM
Listed compounds paired with reported solubility kinetic

{"columns": ["COMPOUND", "BOUND SIGN", "solubility kinetic [µg/mL]"],
 "data": [
  ["Fc1ccc(CNc2nc(-c3ccncc3)nc3ccccc23)cc1F", "<", 1],
  ["O=c1n(-c2ccc(Cl)cc2)nc2n1CCN(Cc1ccc(C(F)(F)F)cc1)C2", "<", 1],
  ["Cc1nn2c(c1-c1ccccc1-c1ccccc1)N(CCC(C)C)CCC2", "<", 1],
  ["O=C(c1ccncc1)N1CCC2(CCCN(C(c3ccccc3)c3ccccc3)C2)CC1", "<", 1],
  ["Cn1nnnc1Sc1ncnc2scc(-c3ccc(F)cc3)c12", "=", 15.3],
  ["COc1ccc(-n2c(C)cc(-c3nnc4n3CCCCC4)c2C)cc1", "=", 31.9],
  ["O=[S+]([O-])(Nc1ccccc1)c1ccc(NCc2cccc(Cl)c2F)cc1", "<", 1],
  ["O=C(Nc1nc(-c2ccccn2)cs1)c1cccc(S(=O)(=O)N2CCOCC2)c1", "=", 24.3],
  ["COc1cccc(CNc2ccc(S(=O)(=O)Nc3cccc(-c4ccccc4)c3)cc2)c1O", "<", 1],
  ["Cn1cnc2c(F)c(Nc3ccc(Br)cc3Cl)c(C(=O)NOCCO)cc21", ">", 45],
  ["CCOc1ccc(CCNC(=O)c2cc3ncccc3n2Cc2cccc(C)c2)cc1OCC", "=", 36.5],
  ["CCc1ccccc1OC[C@@H](O)CN[C@H]1CCCc2ccccc21", "=", 36],
  ["O=[S+]([O-])(Nc1ccc(N2CCNCC2)cc1)c1ccc(NCc2ccc(Cl)cc2O)cc1", "=", 25.2],
  ["COC[C@@H]1CN(C(=O)c2nn(C)c3ccccc23)C[C@H]1c1nc(C)no1", ">", 100],
  ["CC1=C(C(=O)Nc2nncs2)C(c2nn(C)cc2Cl)N=C(Nc2nc3ccccc3o2)N1 (stereo unspecified)", "=", 16.3],
  ["O=C1Nc2ccccc2/C1=C\\c1ccc(O)c(Cl)c1", "=", 22.8],
  ["Cn1cc(S(=O)(=O)N2CCOCC2)cc1C(=O)Nc1ccc(Cl)c(C(F)(F)F)c1", "<", 1],
  ["Cc1ccc(-c2cc(C(=O)Nc3ccc(S(=O)(=O)Nc4ccc(C#N)cc4)cc3)c3ccccc3n2)cc1C", "=", 3.79],
  ["CSc1ccccc1N1CCN(CCCCCC(=O)NC2CCCc3ccccc32)CC1 (stereo unspecified)", "=", 44.7],
  ["COc1ccc(-c2cc(C(F)(F)F)nc(SCCC(=O)Nc3cc(C)ccc3O)n2)cc1", "<", 1],
  ["Cc1ccnc(NC(=S)N2CCN(c3ncc(C(F)(F)F)cc3Cl)CC2)c1", "=", 12]
]}

The origin of these recorded values is PubChem BioAssay AID1645848.
